IC50 for Dipeptidyl peptidase 4 (Sus scrofa, UniProt P22411), merged from several publications.
EXPERIMENTAL_READOUT: IC50 (nM)

>>> recorded_value("CC(C)=CCn1c(SCC(C)(C)N)nc2c1c(=O)n(CC(=O)c1ccccc1)c(=O)n2C")
120
>>> recorded_value("CC(C)=CCn1c(SC(C)(C)CN)nc2c1c(=O)n(CC(=O)c1ccccc1)c(=O)n2C1CC1")
9.4
>>> recorded_value("Cc1nc2ccccn2c1Sc1ncn(C(=O)N(C)C)n1")
5380
>>> recorded_value("N#C[C@@H]1CCCN1C(=O)[C@@H](N)Cc1c[nH]c2ccc(Oc3ccc([N+](=O)[O-])cc3)cc12")
1.82
>>> recorded_value("CN(C)C(=O)n1cnc(S(=O)(=O)C(c2ccccc2)c2ccccc2)n1")
192
>>> recorded_value("CN(C)C(=O)n1cnc(S(=O)(=O)Cc2ccc(C(C)(C)C)cc2)n1")
1350
>>> recorded_value("CN(C)C(=O)n1cnc(SCC2CCCCC2)n1")
5530
>>> recorded_value("CC#CCn1c(SC(C)(C)CN)nc2c1c(=O)n(CC(=O)c1ccccc1)c(=O)n2C")
27
